Source of measurements: BindingDB's records for doi:10.1016/j.bmc.2006.06.050

- System name: Bacterial leucyl aminopeptidase (Vibrio proteolyticus, UniProt Q01693)
- Sequence (Q01693 whole entry): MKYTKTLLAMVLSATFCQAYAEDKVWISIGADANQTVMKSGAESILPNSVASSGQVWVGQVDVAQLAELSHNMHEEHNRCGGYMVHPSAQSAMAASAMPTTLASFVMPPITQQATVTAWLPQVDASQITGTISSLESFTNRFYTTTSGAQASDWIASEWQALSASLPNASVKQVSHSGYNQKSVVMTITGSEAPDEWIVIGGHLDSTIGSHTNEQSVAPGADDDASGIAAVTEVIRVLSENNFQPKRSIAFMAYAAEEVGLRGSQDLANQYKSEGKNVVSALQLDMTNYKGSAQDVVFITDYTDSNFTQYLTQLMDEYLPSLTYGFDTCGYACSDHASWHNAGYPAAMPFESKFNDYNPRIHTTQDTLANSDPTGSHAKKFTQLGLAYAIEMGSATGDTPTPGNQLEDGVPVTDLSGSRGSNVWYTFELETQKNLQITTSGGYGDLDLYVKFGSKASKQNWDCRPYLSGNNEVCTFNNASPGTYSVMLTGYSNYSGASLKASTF
- Protocol details: Enzyme Inhibition Assay
- Experimental parameters: pH 8; 30 °C
Measured IC50, listed per entry.
Give the value in µM but do not write µM after it.

CO/N=C1/Cc2ccccc2CC1N (centres undefined) :: 800
NC1Cc2ccccc2C/C1=N/OCCCCc1ccccc1 (centres undefined) :: 110
NC1Cc2ccccc2C/C1=N/OCCCc1ccccc1 (centres undefined) :: 300
NC1Cc2ccccc2C/C1=N/OCCc1ccccc1 (centres undefined) :: 170
NC1Cc2ccccc2C/C1=N/OCCCCCc1ccccc1 (centres undefined) :: 130
NC1Cc2ccccc2CC1=O (centres undefined) :: 130
CC(=O)C1Cc2ccccc2CC1N (centres undefined) :: 500

# context switch: different molecule, same IC50
Look up IC50: NC1Cc2ccccc2C/C1=N/OCc1ccccc1 (centres undefined)
210

---

- System name: UniProt:Q01693
- Protocol details: Enzyme Inhibition Assay
Test readout: IC50 (µM)
Give the quantity in µM, number only.

NC1Cc2ccccc2CC1P(=O)(O)O (centres undefined) :: 150

Next up:
What does the record list as IC50 for "NN1Cc2ccccc2CC1=O" ?
740

---

- System name: Aminopeptidase N (Sus scrofa)
- Sequence (P15145 whole entry): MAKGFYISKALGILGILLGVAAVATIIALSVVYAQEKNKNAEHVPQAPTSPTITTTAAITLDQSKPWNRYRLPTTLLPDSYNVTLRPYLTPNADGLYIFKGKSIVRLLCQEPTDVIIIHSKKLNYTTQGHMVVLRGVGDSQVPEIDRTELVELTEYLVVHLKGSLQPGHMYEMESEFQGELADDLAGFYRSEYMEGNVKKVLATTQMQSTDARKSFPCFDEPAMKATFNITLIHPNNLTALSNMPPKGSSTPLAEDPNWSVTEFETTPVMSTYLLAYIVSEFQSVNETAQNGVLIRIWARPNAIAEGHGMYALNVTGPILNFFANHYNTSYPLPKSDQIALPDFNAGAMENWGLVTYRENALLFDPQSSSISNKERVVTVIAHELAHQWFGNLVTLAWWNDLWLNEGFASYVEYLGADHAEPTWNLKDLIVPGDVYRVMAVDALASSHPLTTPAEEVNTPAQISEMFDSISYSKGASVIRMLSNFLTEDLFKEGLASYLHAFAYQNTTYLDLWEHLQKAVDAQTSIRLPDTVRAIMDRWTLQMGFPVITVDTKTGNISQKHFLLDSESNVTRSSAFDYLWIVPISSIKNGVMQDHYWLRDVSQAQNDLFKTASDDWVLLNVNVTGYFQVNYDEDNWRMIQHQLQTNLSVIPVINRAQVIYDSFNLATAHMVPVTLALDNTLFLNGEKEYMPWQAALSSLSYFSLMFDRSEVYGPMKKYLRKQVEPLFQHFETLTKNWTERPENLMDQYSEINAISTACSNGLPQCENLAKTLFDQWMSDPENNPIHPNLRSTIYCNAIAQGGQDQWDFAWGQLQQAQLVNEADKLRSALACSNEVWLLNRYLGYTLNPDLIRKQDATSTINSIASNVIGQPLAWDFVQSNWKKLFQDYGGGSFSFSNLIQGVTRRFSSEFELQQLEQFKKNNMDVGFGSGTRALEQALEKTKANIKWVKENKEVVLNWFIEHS
pIC50: −log10 of the molar value.
Each entry below carries its reported pIC50.

Reference set, count: 2
NC1Cc2ccccc2CC1P(=O)(O)O (stereo unspecified) :: 3.30
NC1Cc2ccccc2C/C1=N/OCc1ccccc1 (stereo unspecified) :: 3.10

Need pIC50, item O=C1Cc2ccccc2CO1 [3,4-dihydro-1H-2-benzopyran-3-one]
< 3.00

Item: O=C1Cc2ccccc2CS1 [3,4-dihydro-1H-2-benzothiopyran-3-one]
< 3.00

// repeat for NC1CCc2ccccc2C1 (stereo unspecified) and report
< 3.00

Also check O=C1CCc2ccccc2C1 [1,2,3,4-tetrahydronaphthalen-2-one]
< 3.00
